# experimental_system: T1, JNK1 kinase (residues 1–364 of human JNK1 (isoform α1) with a C-terminal 6xHis tag) (human, UniProt P45983 1-364)
# T1 construct: Human JNK1 (c-Jun N-terminal kinase 1), isoform α1, residues 1-364; source: expressed and purified as described previously [34,35]
# T1 sequence (P45983 1-364): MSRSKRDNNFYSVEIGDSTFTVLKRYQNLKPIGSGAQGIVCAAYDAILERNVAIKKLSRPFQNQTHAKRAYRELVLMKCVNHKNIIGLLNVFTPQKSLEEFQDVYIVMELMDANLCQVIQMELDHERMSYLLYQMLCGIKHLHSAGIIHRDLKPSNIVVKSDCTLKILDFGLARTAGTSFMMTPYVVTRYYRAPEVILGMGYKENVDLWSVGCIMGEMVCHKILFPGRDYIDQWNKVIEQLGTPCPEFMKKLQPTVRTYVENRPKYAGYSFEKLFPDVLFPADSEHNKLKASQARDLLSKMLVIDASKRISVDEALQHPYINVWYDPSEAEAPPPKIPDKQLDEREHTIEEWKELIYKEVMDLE
# assay_comment: ITC; MKK4 (570 μM, with thioredoxin and 6xHis tag) titrated into JNK1 (42 μM); 20 °C; 50 mM HEPES pH 8.2, 150 mM NaCl, 10% glycerol, 0.5 mM TCEP; model of n identical and independent sites
# setup_conditions: both partners purified
assay_endpoint: Kd (µM)
Give a bare numeral; the unit µM is implied.

// Kd lookup, key: regulatory domain of MKK4 (residues 12–86) with N-terminal thioredoxin and 6xHis tag, unlabeled, for ITC (domain or fragment, human, UniProt P45985 12-86, looked up, source: expressed and purified as described previously [34,35]; size-exclusion chromatography in the ITC buffer; not shown: thioredoxin, N-terminal, kept; His6, N-terminal, kept) SGGGSGSGTPGPVGSPAPGHPAVSSMQGKRKALKLNFANPPFKSTARFTLNPNPTGVQNPHIERLRTHSIESSGK
1.3

Where do the numbers come from? From paper PMC8391806.
